// reported self-splicing fitness (ln) for each item listed
test: self-splicing fitness, log relative to wild type (ln ratio); higher = more splicing; Tetrahymena group I intron in knt gene, E. coli kanamycin selection, DiMSum; sequences stand for … in CUCUCU…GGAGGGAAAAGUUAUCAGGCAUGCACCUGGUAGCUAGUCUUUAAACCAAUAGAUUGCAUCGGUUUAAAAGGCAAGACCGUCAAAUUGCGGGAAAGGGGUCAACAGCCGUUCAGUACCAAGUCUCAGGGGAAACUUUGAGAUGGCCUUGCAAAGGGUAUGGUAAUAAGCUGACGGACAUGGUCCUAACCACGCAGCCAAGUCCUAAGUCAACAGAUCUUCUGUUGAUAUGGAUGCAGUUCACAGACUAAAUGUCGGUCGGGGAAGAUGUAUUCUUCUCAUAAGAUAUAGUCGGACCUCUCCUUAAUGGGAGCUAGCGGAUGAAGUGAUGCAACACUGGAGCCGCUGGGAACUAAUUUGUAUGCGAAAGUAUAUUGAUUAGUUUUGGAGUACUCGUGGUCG; conditions: 30 °C;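 further: selection with 25 µg/mL kanamycin versus none on LB agar overnight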
Number only, no unit.

The examples below pair each entry with its known result.
>  <Sequence Entry>
UGAAAGCAAUAUUACGGACU

>  <Metric>
self-splicing fitness (ln)

>  <Measured Result>
0.219

$$$$
>  <Sequence Entry>
GAUCAGCAAUAUUACGCUUA

>  <Metric>
self-splicing fitness (ln)

>  <Measured Result>
-0.551

$$$$
>  <Sequence Entry>
GUGUAGCAAUAUUACGAUUC

>  <Metric>
self-splicing fitness (ln)

>  <Measured Result>
0.325

$$$$
>  <Sequence Entry>
GGGGAGCAAUAUUACGUUAA

>  <Metric>
self-splicing fitness (ln)

>  <Measured Result>
-2.53

$$$$
>  <Sequence Entry>
AGAAAGCAAUAUUACGGGAC

>  <Metric>
self-splicing fitness (ln)

>  <Measured Result>
-3.06

$$$$

In: Consider the sequence shown here: CGUGAGCAAUAUUACGGCAA What is its recorded self-splicing fitness (ln)?
Out: -2.81

In: Consider the sequence shown here: AUGCAGCAAUAUUACGCCCA What is its recorded self-splicing fitness (ln)?
Out: -1.11

In: Consider the sequence shown here: CCGCAGCAAUAUUACGGGGA What is its recorded self-splicing fitness (ln)?
Out: -3.59

In: Consider the sequence shown here: UAAUAGCAAUAUUACGUGGA What is its recorded self-splicing fitness (ln)?
Out: -2.97

In: Consider the sequence shown here: GCACAGCAAUAUUACGAUCA What is its recorded self-splicing fitness (ln)?
Out: -0.983

In: Consider the sequence shown here: AUCUAGCAAUAUUACGGUAA What is its recorded self-splicing fitness (ln)?
Out: -0.976

In: Consider the sequence shown here: CGUGAGCAAUAUUACGAGCG What is its recorded self-splicing fitness (ln)?
Out: -3.57

In: Consider the sequence shown here: AGUCAGCAAUAUUACGCACG What is its recorded self-splicing fitness (ln)?
Out: -1.02

In: Consider the sequence shown here: GAUUAGCAAUAUUACGUCCA What is its recorded self-splicing fitness (ln)?
Out: -2.04

In: Consider the sequence shown here: CGAUAGCAAUAUUACGCCAA What is its recorded self-splicing fitness (ln)?
Out: -2.66

In: Consider the sequence shown here: GCAUAGCAAUAUUACGGUCG What is its recorded self-splicing fitness (ln)?
Out: -1.77
